# system: recombinant full-length PfCSP (Plasmodium falciparum circumsporozoite protein, strain NF54) (Plasmodium falciparum NF54, UniProt P19597)
# Sequence (P19597 20-375): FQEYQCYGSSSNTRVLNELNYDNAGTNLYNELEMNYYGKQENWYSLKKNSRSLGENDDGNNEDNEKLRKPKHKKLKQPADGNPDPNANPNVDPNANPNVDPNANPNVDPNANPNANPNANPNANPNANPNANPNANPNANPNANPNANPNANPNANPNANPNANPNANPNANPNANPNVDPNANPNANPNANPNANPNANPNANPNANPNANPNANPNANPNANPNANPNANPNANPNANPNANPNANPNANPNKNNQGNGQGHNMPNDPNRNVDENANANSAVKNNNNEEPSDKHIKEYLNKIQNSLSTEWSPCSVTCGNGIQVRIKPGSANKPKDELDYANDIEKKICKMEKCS

binder	binding result
CL-514716 (antibody, V domains shown) VH: QIQLVESGGGVVQPGRSLRLSCAASGFTFSTYGMHWVRQAPGKGLEWVAVIWYDGSNKYYADSVQGRFTISRDNSKNTLYLQMNSLRAEDTAIYYCTTVGPIPFDYWGQGTLVTVSS VL: DIVMTQTPLSSPVILGQPASISCRSSQSLVHSSGNTYLSWLQQRPGQPPRLLIYKTFKRLSGVPDRFSGSGAGTDFTLKISRVEAEDVGVYYCLQSTQFPLTFGGGTKVEIK	binds
CL-513279 (antibody, V domains shown) VH: QVQLVESGGGVVQPGRSLRLSCAASGFTFSNFGMHWVRQAPVKGLEWVALIWYDGSNKFYADSVQGRFTISRDNSKNILYLQMNSLRAEDTAVYYCAKVEARGVDYHSYGMDVWGQGTTVTVSS VL: DIQMTQSPSTLSASVGDRVTITCRASQSISSWLAWYQQKPGKAPQLLIYKASSLESGVPSRFSGSGSGTEFTLTISSLQPDDFATYYCQQYKYYWTFGQGTKVEIK	binds
CL-512564 (antibody, V domains shown) VH: QVQLVESGGGVVQPGRSLRLSCAASGFTFSNSGMHWVRQAPGKGLEWVAIIWYDGSHKFYADSVKGRFTISRDNSKNTLYLQMNSLRIEDTAMYYCVRSYNWNYPVRGDYKYGMDVWGQGTTVTVSS VL: DIQMTQSPSTLSASVGDRVTITCRASQSISSWLAWFQQKPGKAPNLLIYMASSLQSGVPSRFSGSGSGTEFTLTISSLQPDDFATYYCQQFNTYWTFGQGTKVEIK	binds
